Reference source for all entries: patent US5665745A

- target.desc: muscarinic receptors (M1 -site, pirenzepine sensitive site) (Rattus norvegicus, UniProt P08482)
- Construct: from tissue; host or cells: cerebral cortex membranes of male Wistar rats
- Sequence (P08482 1-460): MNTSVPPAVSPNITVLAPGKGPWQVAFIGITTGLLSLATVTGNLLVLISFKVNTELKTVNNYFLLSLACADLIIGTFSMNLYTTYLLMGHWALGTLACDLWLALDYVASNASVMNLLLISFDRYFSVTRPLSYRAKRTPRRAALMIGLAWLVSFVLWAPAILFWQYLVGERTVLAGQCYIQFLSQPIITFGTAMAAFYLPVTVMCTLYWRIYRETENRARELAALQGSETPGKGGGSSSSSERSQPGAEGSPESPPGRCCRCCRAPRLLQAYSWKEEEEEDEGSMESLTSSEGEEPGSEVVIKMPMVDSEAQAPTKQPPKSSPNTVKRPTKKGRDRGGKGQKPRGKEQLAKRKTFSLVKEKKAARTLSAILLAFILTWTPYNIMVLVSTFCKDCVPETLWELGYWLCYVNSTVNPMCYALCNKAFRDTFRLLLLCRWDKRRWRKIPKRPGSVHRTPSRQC
- experimental.details: inhibition of ^3 HPRZ (pirenzepine, [N-methyl-^3 H]) binding to rat cerebral cortex membranes
- Design: species or system rat (male Wistar
- experimental.setup: ^3 HPRZ 1.0 nM, rat cortex, 60 min. at 20° C.; read-out: ^3 HPRZ IC50 (head from b208 on: Pir IC-50)
measured.quantity: log10 IC50 (log10 of the value in nM)
Quick note: numbers are log10 of IC50, with nM as the unit.

Observe how each entry below is paired with its result.
* CSc1ccc(COc2nsnc2O[C@@H]2CN3CCC[C@H]2C3)cc1 (relative stereo) | 1.00
* CCCCSc1nsnc1OC1CNC1 | 2.05
* c1csc(-c2ccc(SCCSc3nsnc3OC3CN4CCC3CC4)s2)c1 (racemic) | 2.01
* O=C1CCCn2cccc21 [Compound 139, 1-azabicyclo[4.3.0]nona-6,8-diene-5-one] | 2.16
* CCCCCSc1nsnc1O[C@@H]1CN2CCC[C@H]1C2 (relative stereo) | 1.28

input: Dear colleague, I am looking for the recorded log10 IC50 of the following compound: FC(F)(F)C(F)(F)COc1nsnc1OC1CN2CCC1CC2 (racemic)
output: 2.28

input: Dear colleague, I am looking for the recorded log10 IC50 of the following compound: N#Cc1ccc(CSc2nsnc2O[C@H]2CN3CCC[C@@H]2C3)cc1 (relative stereo)
output: 0.28

input: Dear colleague, I am looking for the recorded log10 IC50 of the following compound: CCCCSc1nsnc1OC1CCN(C)CC1
output: 1.28

input: Dear colleague, I am looking for the recorded log10 IC50 of the following compound: COc1ccc(CCCOc2nsnc2O[C@@H]2CN3CCC[C@H]2C3)cc1 (relative stereo)
output: 1.00

input: Dear colleague, I am looking for the recorded log10 IC50 of the following compound: CCCCSc1nsnc1OCCN(C)C
output: 0.95

input: Dear colleague, I am looking for the recorded log10 IC50 of the following compound: COc1nsnc1OC1CN2CCC1CC2 (racemic)
output: 2.26

input: Dear colleague, I am looking for the recorded log10 IC50 of the following compound: C#CC(C)Oc1nsnc1OC1CN2CCCC1C2 (mixture of isomers)
output: 0.63

input: Dear colleague, I am looking for the recorded log10 IC50 of the following compound: CCCCSc1nsnc1OC1CCNC1 (racemic)
output: 1.54

input: Dear colleague, I am looking for the recorded log10 IC50 of the following compound: CCCCOc1nsnc1OC1CCN(C)C1 (racemic)
output: 1.40

input: Dear colleague, I am looking for the recorded log10 IC50 of the following compound: CSCCOc1nsnc1OC1CN2CCC1CC2 (racemic)
output: 2.73

input: Dear colleague, I am looking for the recorded log10 IC50 of the following compound: CCCCNc1nsnc1OC1CN2CCC1CC2 (racemic)
output: 2.11
